- Tested on: MFE-319 (Endometrial Carcinoma)
- assay.notes: combination Emax (second highest fraction inhibited in the dose matrix, 72 h); higher = more inhibition; extreme values may be limits of the assay
quantity: combination Emax

1. C[C@@H](c1ccc2nccn2c1)n1nnc2ncc(-c3cnn(C)c3)nc21 [Savolitinib] + Cc1c2c(nn1C)CSCc1cc(n(C)n1)CSc1cc(c3ccccc3c1)OCCCc1c(C(=O)O)n(C)c3c-2c(Cl)ccc13 [AZD5991] (first compound max 1 µM, 7x7, partner max 1 µM) | 0.406
2. NC1(C(=O)N[C@@H](CCO)c2ccc(Cl)cc2)CCN(c2ncnc3[nH]ccc23)CC1 [Capivasertib] + C[C@@H]1COCCN1C2=NC(=NC(=C2)C3(CC3)[S@](=N)(=O)C)C4=C5C=CNC5=NC=C4 [AZD6738] (first compound max 10 µM, 7x7, partner max 10 µM) | 0.787
3. CCN(CCO)CCCOc1ccc2c(Nc3cc(CC(=O)Nc4cccc(F)c4)[nH]n3)ncnc2c1 [AZD2811] + O=C(c1cc(Cc2n[nH]c(=O)c3ccccc23)ccc1F)N1CCN(C(=O)C2CC2)CC1 [Olaparib] (first compound max 1 µM, 7x7, partner max 10 µM) | 0.245
4. C[C@@H](c1ccc2nccn2c1)n1nnc2ncc(-c3cnn(C)c3)nc21 [Savolitinib] + CN(CC[C@H](CSC1=CC=CC=C1)NC2=C(C=C(C=C2)S(=O)(=O)NC(=O)C3=CC=C(C=C3)N4CCC(CC4)[C@H](C5=CC=CC=C5C6=CC=C(C=C6)Cl)O)S(=O)(=O)C(F)(F)F)CCO [AZD4320] (first compound max 1 µM, 7x7, partner max 1 µM) | 0.191
5. Cc1c2c(nn1C)CSCc1cc(n(C)n1)CSc1cc(c3ccccc3c1)OCCCc1c(C(=O)O)n(C)c3c-2c(Cl)ccc13 [AZD5991] + C1CN(CCC1(C(=O)N[C@@H](CCO)C2=CC=C(C=C2)Cl)N)C3=NC=NC4=C3C=CN4 [Capivasertib] (first compound max 1 µM, 7x7, partner max 3 µM) | 0.776
6. CC1(C)CCC(CN2CCN(c3ccc(C(=O)NS(=O)(=O)c4ccc(NCC5CCOCC5)c([N+](=O)[O-])c4)c(Oc4cnc5[nH]ccc5c4)c3)CC2)=C(c2ccc(Cl)cc2)C1 [Venetoclax] + COc1cc(Nc2ncc3c(n2)-c2ccc(Cl)cc2C(c2c(F)cccc2OC)=NC3)ccc1C(=O)O [Alisertib] (first compound max 1 µM, 7x7, partner max 10 µM) | 0.395
7. COc1cccc(OCCCN)c1-c1cc(Nc2cnc(C#N)cn2)n[nH]1 [Prexasertib] + O=C(c1cc(Cc2n[nH]c(=O)c3ccccc23)ccc1F)N1CCN(C(=O)C2CC2)CC1 [Olaparib] (first compound max 1 µM, 7x7, partner max 10 µM) | 0.811
